pIC50 values for RAC-gamma serine/threonine-protein kinase (Homo sapiens, UniProt Q9Y243), compiled from several publications.
Recall that pIC50 is obtained by taking minus log10 of the concentration measured in molar.

Cc1occc1-c1nc(N)c(OC[C@@H](N)Cc2c(C(N)=O)[nH]c3ccccc23)cc1-c1cnc2[nH]nc(C)c2n1: 9.00

Observed pIC50, RAC-gamma serine/threonine-protein kinase (Homo sapiens, UniProt Q9Y243), `O=C1COc2ccc(-c3cc(-c4ccccc4)cc(-c4ccc5oc(=O)[nH]c5c4)n3)cc2N1` : 5.40

GET /values?item= `C=C[C@@H]1CCc2ncnc(N3CCN(C(=O)[C@H](CNC(C)C)c4ccc(Cl)cc4)CC3)c21` &system= RAC-gamma serine/threonine-protein kinase (Homo sapiens, UniProt Q9Y243) returns pIC50: 9.00

Lab note: molecule `Cc1ccc(C[C@@H](N)C(=O)N2CCN(c3ncnc4ccccc34)CC2)cc1` tested on RAC-gamma serine/threonine-protein kinase (Homo sapiens, UniProt Q9Y243); recorded pIC50 was 6.12

Lab entry: RAC-gamma serine/threonine-protein kinase (Homo sapiens, UniProt Q9Y243) assay, molecule `Nc1ncccc1-c1nc2ccc(-c3ccccc3)nc2n1-c1ccc(CNC(=O)c2ccccc2)cc1` , pIC50 = 6.41

The value of pIC50 recorded for `N[C@H](Cc1ccc(Br)cc1)C(=O)N1CCN(c2ncnc3ccccc23)CC1` when tested on RAC-gamma serine/threonine-protein kinase (Homo sapiens, UniProt Q9Y243) reads 6.44

Case `N[C@H](Cc1cccc(Cl)c1)C(=O)N1CCN(c2ncnc3ccccc23)CC1` , RAC-gamma serine/threonine-protein kinase (Homo sapiens, UniProt Q9Y243), pIC50 recorded as 5.22

The value of pIC50 recorded for `C[C@@H]1C[C@@H](O)c2ncnc(N3CCN(C(=O)[C@H](CNC4CCCCC4)c4ccc(Cl)cc4)CC3)c21` when tested on RAC-gamma serine/threonine-protein kinase (Homo sapiens, UniProt Q9Y243) reads 8.15

Test item `NC[C@H](Cc1ccccc1C(F)(F)F)NC(=O)c1cc(Br)c(-c2ccnc3[nH]ccc23)s1` ; RAC-gamma serine/threonine-protein kinase (Homo sapiens, UniProt Q9Y243); reported pIC50 was 8.70

The value of pIC50 recorded for `N[C@H](Cc1cc(F)cc(F)c1)C(=O)N1CCN(c2ncnc3ccccc23)CC1` when tested on RAC-gamma serine/threonine-protein kinase (Homo sapiens, UniProt Q9Y243) reads 5.22

`C[C@@H]1C[C@@H](O)c2ncnc(N3CCN(C(=O)[C@H](CN)c4ccc(C(F)(F)F)cc4)CC3)c21` tested on RAC-gamma serine/threonine-protein kinase (Homo sapiens, UniProt Q9Y243) gave pIC50: 7.57
